Provenance of the data: paper PMC11589101

Target: human transthyretin (TTR) (Homo sapiens)
Test: FITC-T4 TTR-binding assay, initial (original) method
Settings: 3 uM
Method: All incubations were performed at room temperature. Fluorescence enhancement was determined for each well by subtracting its relative fluorescence units (RFU) before TTR addition from its RFUs after TTR addition. The resulting values were normalized to percentages of the vehicle control. […] After 15 min of incubation, fluorescence was measured and fluorescence enhancement was calculated by subtracting RFU without TTR from RFU with TTR. […]
MEASURED_PARAMETER: % FITCT4 bound to TTR (%)
Field: numeric (%). Do not append units.

Some compounds with known % FITCT4 bound to TTR results, for comparison:
{"columns": ["COMPOUND", "MEASURED_PARAMETER", "READOUT_VALUE"],
 "data": [
  ["O=S(=O)(O)C(F)(F)C(F)(F)C(F)(F)C(F)(F)F", "% FITCT4 bound to TTR", 73.6529],
  ["CC(C)(C)C(O)C(Oc1ccc(-c2ccccc2)cc1)n1cncn1 (stereo not shown)", "% FITCT4 bound to TTR", 79.29],
  ["O=S(=O)(O)C(F)(F)C(F)(F)C(F)(F)C(F)(F)C(F)(F)C(F)(F)C(F)(F)C(F)(F)F", "% FITCT4 bound to TTR", 2.093]
]}

Now for a further compound.
% FITCT4 bound to TTR measured on `O=S(=O)(O)C(F)(F)C(F)(F)C(F)(F)C(F)(F)C(F)(F)C(F)(F)F` = 8.444

---

biological target: human transthyretin (TTR) (Homo sapiens, UniProt P02766); assay: FITC-T4 TTR-binding assay, screening method
# IC50 listing for each entry below
Note: a bare number is incomplete; add the unit.

Some compounds with known IC50 results, for comparison:
{"columns": ["COMPOUND", "IC50"],
 "data": [
  ["CC1COC(Cn2cncn2)(c2ccc(Oc3ccc(Cl)cc3)cc2Cl)O1 (stereo not drawn)", "22 µM"],
  ["O=S(=O)(O)C(F)(F)C(F)(F)C(F)(F)C(F)(F)C(F)(F)C(F)(F)F", "0.24 µM"]
]}

Now for a further compound.
IC50 measured on CC(C)(C)C(O)C(Oc1ccc(-c2ccccc2)cc1)n1cncn1 (stereo not drawn) = 20.5 µM

---

target: human transthyretin (TTR) (Homo sapiens); assay: FITC-T4 TTR-binding assay, initial (original) method; conditions: initial method; 110 nM FITC-T4, 30 nM TTR
MEASURED_PARAMETER: IC10 competing with FITC-T4 for binding to TTR (nM)
Field: numeric (nM). Do not append units.

Some compounds with known IC10 competing with FITC-T4 for binding to TTR results, for comparison:
{"columns": ["COMPOUND", "ASSAY_SYSTEM", "READOUT_VALUE"],
 "data": [
  ["CC(C)(C)C(O)C(Oc1ccc(-c2ccccc2)cc1)n1cncn1 (stereo not drawn)", "human transthyretin (TTR) (Homo sapiens)", 220],
  ["CC1COC(Cn2cncn2)(c2ccc(Oc3ccc(Cl)cc3)cc2Cl)O1 (stereo not drawn)", "human transthyretin (TTR) (Homo sapiens)", 230]
]}

Now for a further compound.
IC10 competing with FITC-T4 for binding to TTR measured on `O=S(=O)(O)C(F)(F)C(F)(F)C(F)(F)C(F)(F)F` = 820
